- System: UACC-62 melanoma
- assay info: NCI-60 one-dose screen, 48 h (100 = growth as untreated, 0 = no growth, -100 = all killed)
- experimental conditions: 10 µM unless noted
This is part of a sample that, as a whole, favours compounds with a hit. Of some 83,000 tested, about 20% had one in any assay.
readout: growth (%)

>  <compound>
Cc1ccc(-c2cc(-c3ccccc3)n(-c3ccccc3)n2)cc1

>  <assay target>
UACC-62 melanoma

>  <value units>
%

>  <readout value>
88.2

$$$$
>  <compound>
COc1ccc2ncccc2c1Cc1c(OC)ccc2ncccc12

>  <assay target>
UACC-62 melanoma

>  <value units>
%

>  <readout value>
58

$$$$
>  <compound>
COc1ccc(-c2c3c(N)nc(-c4ccncc4)nc3nc3c2c(C)nn3-c2ccccc2)cc1

>  <assay target>
UACC-62 melanoma

>  <value units>
%

>  <readout value>
64.1

$$$$
>  <compound>
Nc1ccccc1C#Cc1ccccc1C#Cc1ccc(OCCCCCCOc2ccc(C#Cc3ccccc3C#Cc3ccccc3N)cc2)cc1

>  <assay target>
UACC-62 melanoma

>  <value units>
%

>  <readout value>
96.6

$$$$
>  <compound>
C(#Cc1ccccc1C#Cc1ccccn1)c1ccc(OCCCCCCOc2ccc(C#Cc3ccccc3C#Cc3ccccn3)cc2)cc1

>  <assay target>
UACC-62 melanoma

>  <value units>
%

>  <readout value>
23.9

$$$$
>  <compound>
O=C1OC2(c3ccccc31)c1ccccc1-c1ccccc12

>  <assay target>
UACC-62 melanoma

>  <value units>
%

>  <readout value>
57.4

$$$$
>  <compound>
COC(=O)c1c(NC(=O)CSc2nnnn2-c2ccc(OC)cc2)sc(C)c1C

>  <assay target>
UACC-62 melanoma

>  <value units>
%

>  <readout value>
74.8

$$$$
>  <compound>
COc1ccc(-n2cnc3cc(C(=O)N4CCCCC4)ccc32)cc1

>  <assay target>
UACC-62 melanoma

>  <value units>
%

>  <readout value>
101

$$$$
>  <compound>
O=C(CSc1nnc(-c2cc(-c3ccccc3)nc3ccccc23)o1)c1ccc(Br)cc1

>  <assay target>
UACC-62 melanoma

>  <value units>
%

>  <readout value>
94.8

$$$$
>  <compound>
CN(C)CCCNc1nn2c(=O)c3ccccc3nc2c2ccccc12

>  <assay target>
UACC-62 melanoma

>  <value units>
%

>  <readout value>
67.3

$$$$
>  <compound>
O=C1C(=O)/C(=C/c2ccccc2)CCCCCC/C1=C/c1ccccc1

>  <assay target>
UACC-62 melanoma

>  <value units>
%

>  <readout value>
79.6

$$$$
>  <compound>
COc1ccc2c(c1)sc1nc(-c3ccc(Br)cc3)cn12

>  <assay target>
UACC-62 melanoma

>  <value units>
%

>  <readout value>
86.2

$$$$
>  <compound>
O=C(CN1CCN(c2ccc(Cl)cc2)CC1)N1CCN(c2nnc(-c3ccccc3)c(-c3ccccc3)n2)CC1

>  <assay target>
UACC-62 melanoma

>  <value units>
%

>  <readout value>
53

$$$$
>  <compound>
C=C(CN1CCc2c([nH]c3ccccc23)C1)c1ccc(C(=O)Nc2ccon2)cc1

>  <assay target>
UACC-62 melanoma

>  <value units>
%

>  <readout value>
80

$$$$
>  <compound>
Nc1nc(NC2CC2)c2ncn(C3C=CC(CO)C3)c2n1 (stereo not given)

>  <assay target>
UACC-62 melanoma

>  <value units>
%

>  <readout value>
83.6

$$$$
